Please provide measured fraction unbound for the entries that follow.
molecular target: albumin (Homo sapiens); construct: tissue Zen-Bio; host or cells: pooled human whole blood (K2EDTA, 36 donors) and plasma prepared from it; experiment: in vitro; assay type: in vitro ADME; settings: plasma, pooled human plasma, 8 min, 37° C., 12.0 μM, read-out: % bound (converted)
Sequence (P02768 25-609): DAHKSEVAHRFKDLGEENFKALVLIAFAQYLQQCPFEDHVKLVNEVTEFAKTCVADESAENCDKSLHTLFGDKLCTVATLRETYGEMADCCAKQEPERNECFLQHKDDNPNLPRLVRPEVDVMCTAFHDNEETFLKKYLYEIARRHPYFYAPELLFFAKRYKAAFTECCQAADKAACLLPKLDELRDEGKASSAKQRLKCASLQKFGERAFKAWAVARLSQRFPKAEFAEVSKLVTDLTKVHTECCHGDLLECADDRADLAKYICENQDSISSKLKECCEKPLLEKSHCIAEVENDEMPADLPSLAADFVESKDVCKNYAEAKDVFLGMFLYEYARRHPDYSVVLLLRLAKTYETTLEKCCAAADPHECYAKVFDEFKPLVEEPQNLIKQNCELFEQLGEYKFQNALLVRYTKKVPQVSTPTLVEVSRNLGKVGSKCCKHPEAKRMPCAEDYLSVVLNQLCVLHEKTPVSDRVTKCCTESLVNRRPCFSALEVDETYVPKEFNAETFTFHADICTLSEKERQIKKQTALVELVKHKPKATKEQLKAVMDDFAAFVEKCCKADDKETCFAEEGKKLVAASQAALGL
One number for each entry.

Please supply fraction unbound for each of the following items, keeping them in order.
1. COc1cc2cc(c1Cl)N(C)C(=O)C[C@H](OC(=O)Cc1ccc(/C(C)=N/NC(=O)c3ccc(NC(=O)CCCCCN4C(=O)C=CC4=O)cc3S(=O)(=O)O)cc1F)[C@]1(C)O[C@H]1[C@H](C)[C@@H]1C[C@@](O)(NC(=O)O1)[C@H](OC)/C=C/C=C(\C)C2
2. COc1cc2cc(c1Cl)N(C)C(=O)C[C@H](OC(=O)COc1cccc(/C(C)=N/NC(=O)c3ccc(NC(=O)CCCCCN4C(=O)C=CC4=O)cc3S(=O)(=O)O)c1)[C@]1(C)O[C@H]1[C@H](C)[C@@H]1C[C@@](O)(NC(=O)O1)[C@H](OC)/C=C/C=C(\C)C2

Response given:
1. 0.015
2. 0.014
